system: female white mice; test: general tranquilizer activity in mice (exploratory loss, ptosis, catatonia, muscle tone, grip and lift reflexes, pinna twitch reflex, tremors, death); settings: Mus musculus, po, read-out: ED50 Catatonia, oral, mice; observed at 0.5, 2 and 24 hours
Counter-ions that a name gives are not always drawn.
The label TRUE is reserved for ED50 strictly under 60 mg/kg; FALSE covers values equal to or above it.

>>> class_name("C[C@]12C[C@@]3(CN(CC4CCCCC4)C[C@@H]3c3ccccc31)c1ccccc12 (relative stereo) [Example 1, Hydrochloride]")
"FALSE"

Just wondering, is ED50 of CC1[C@@H]2c3ccccc3[C@@H]3C[C@@]2(CN1CC1CCCC1)c1ccccc13 (some centres unmarked) [Example 3g, hydrochloride] below 60 mg/kg?
TRUE

Just wondering, is ED50 of CN(C)CCCN1c2ccccc2Sc2ccc(Cl)cc21 [Chlorpromazine, reference compound] below 60 mg/kg?
TRUE

----------
So I've got a bunch of molecules here, and I need their LD50 at 24 h values.
experiment: general tranquilizer activity in mice (exploratory loss, ptosis, catatonia, muscle tone, grip and lift reflexes, pinna twitch reflex, tremors, death); details: mouse, in vivo, po
Where a name gives a salt, the structure may show the parent alone.

// known answers, use as guide
>>> reported_value("C[C@]12C[C@@]3(CN(CC4CCCCC4)C[C@@H]3c3ccccc31)c1ccccc12 (relative stereo) [Example 1, Hydrochloride]")
"> 324 mg/kg"
>>> reported_value("CC1[C@@H]2c3ccccc3[C@@H]3C[C@@]2(CN1CC1CCCC1)c1ccccc13 (stereo partly shown) [Example 3g, hydrochloride]")
"> 324 mg/kg"
>>> reported_value("CN1C[C@@H]2c3ccccc3[C@]3(C)C[C@@]2(C1)c1ccccc13 (relative stereo) [Example 2, Hydrochloride]")
"300 mg/kg"

As a next step, examine the molecule that follows.
Short answer for CN(C)CCCN1c2ccccc2Sc2ccc(Cl)cc21 [Chlorpromazine, reference compound] : LD50 at 24 h was 850 mg/kg

----------
system: female white mice; assay: general tranquilizer activity in mice (exploratory loss, ptosis, catatonia, muscle tone, grip and lift reflexes, pinna twitch reflex, tremors, death); settings: Mus musculus, po, read-out: ED50 Reflexes Pinna, oral, mice; observed at 0.5, 2 and 24 hours
Counter-ions that a name gives are not always drawn.
So I've got a bunch of molecules here, and I need their ED50 values.
Numbers only, in mg/kg.

// known answers, use as guide
>>> reported_value("C[C@]12C[C@@]3(CN(CC4CCCCC4)C[C@@H]3c3ccccc31)c1ccccc12 (relative stereo) [Example 1, Hydrochloride]")
109
>>> reported_value("CN(C)CCCN1c2ccccc2Sc2ccc(Cl)cc21 [Chlorpromazine, reference compound]")
5
>>> reported_value("CN1C(=O)CN=C(c2ccccc2)c2cc(Cl)ccc21 [Diazepam, reference compound]")
63
>>> reported_value("CN1C[C@@H]2c3ccccc3[C@]3(C)C[C@@]2(C1)c1ccccc13 (relative stereo) [Example 2, Hydrochloride]")
60

As a next step, examine the molecule that follows.
Short answer for CC1[C@@H]2c3ccccc3[C@@H]3C[C@@]2(CN1CC1CCCC1)c1ccccc13 (some centres unmarked) [Example 3g, hydrochloride] : ED50 was 20

----------
So I've got a bunch of compounds here, and I need their ED50 values.
test system: female white mice; experiment: general tranquilizer activity in mice (exploratory loss, ptosis, catatonia, muscle tone, grip and lift reflexes, pinna twitch reflex, tremors, death); conditions: Mus musculus, po, read-out: ED50 Exploratory Loss Visual, oral, mice; observed at 0.5, 2 and 24 hours
Where a name gives a salt, the structure may show the parent alone.
One number for each entry, in mg/kg.

// known answers, use as guide
>>> reported_value("CN(C)CCCN1c2ccccc2Sc2ccc(Cl)cc21 [Chlorpromazine, reference compound]")
7
>>> reported_value("CN1C[C@@H]2c3ccccc3[C@]3(C)C[C@@]2(C1)c1ccccc13 (relative stereo) [Example 2, Hydrochloride]")
60
>>> reported_value("CN1C(=O)CN=C(c2ccccc2)c2cc(Cl)ccc21 [Diazepam, reference compound]")
87
>>> reported_value("CC1[C@@H]2c3ccccc3[C@@H]3C[C@@]2(CN1CC1CCCC1)c1ccccc13 (some centres unmarked) [Example 3g, hydrochloride]")
7

As a next step, examine the compound that follows.
// assay female white mice, entry C[C@]12C[C@@]3(CN(CC4CCCCC4)C[C@@H]3c3ccccc31)c1ccccc12 (relative stereo) [Example 1, Hydrochloride] , ED50 value = 87

----------
test system: female white mice; assay: general tranquilizer activity in mice (exploratory loss, ptosis, catatonia, muscle tone, grip and lift reflexes, pinna twitch reflex, tremors, death); settings: Mus musculus, po, read-out: ED50 Muscle Tone, oral, mice; observed at 0.5, 2 and 24 hours
Structures can show the parent of a compound that is named as a salt.
So I've got a bunch of compounds here, and I need their ED50 values.
Give me the value, and tack the unit on after it.

// known answers, use as guide
>>> reported_value("CC1[C@@H]2c3ccccc3[C@@H]3C[C@@]2(CN1CC1CCCC1)c1ccccc13 (some centres unmarked) [Example 3g, hydrochloride]")
"20 mg/kg"
>>> reported_value("CN(C)CCCN1c2ccccc2Sc2ccc(Cl)cc21 [Chlorpromazine, reference compound]")
"8 mg/kg"
>>> reported_value("CN1C[C@@H]2c3ccccc3[C@]3(C)C[C@@]2(C1)c1ccccc13 (relative stereo) [Example 2, Hydrochloride]")
"36 mg/kg"
>>> reported_value("CN1C(=O)CN=C(c2ccccc2)c2cc(Cl)ccc21 [Diazepam, reference compound]")
"89 mg/kg"

Short answer for C[C@]12C[C@@]3(CN(CC4CCCCC4)C[C@@H]3c3ccccc31)c1ccccc12 (relative stereo) [Example 1, Hydrochloride] : ED50 was 109 mg/kg
